# EXPERIMENT SUMMARY: protein stability index of a GFP-peptide fusion (yeast GPS) (PSI 1-4); higher = more stable; sorted into four equal gates, so the index is relative within each strain
# ASSAY CONTEXT: ubr1∆
Record MET whenever protein stability index is at 3 or higher; record NOT MET when lower.

- SEQUENCE STRING: "MSNVVQARDNSQVFGVA [RPS14A]"
  DISCRETE LABEL: "NOT MET"
- SEQUENCE STRING: "LKTNGKQNNKDFRTRYI [MTW1]"
  DISCRETE LABEL: "NOT MET"
- SEQUENCE STRING: "DDDTFSDREMAALIASK [RPN2]"
  DISCRETE LABEL: "NOT MET"
- SEQUENCE STRING: "WKLLNQLVLRGLLSQAI [YJR042W/NUP85]"
  DISCRETE LABEL: "NOT MET"
- SEQUENCE STRING: "WYQFSNSKDHKKITLQL [SIN4]"
  DISCRETE LABEL: "NOT MET"
- SEQUENCE STRING: "DKSTTQLRKEIQLLDEN [MED11]"
  DISCRETE LABEL: "NOT MET"
- SEQUENCE STRING: "YSTLKELLEYSDDIAEN [YCG1]"
  DISCRETE LABEL: "NOT MET"
- SEQUENCE STRING: "FEVEMILMQQQMMARMA [SRP54]"
  DISCRETE LABEL: "NOT MET"
- SEQUENCE STRING: "RVVMMKYDRKVPSPTGE [RPO21]"
  DISCRETE LABEL: "NOT MET"
- SEQUENCE STRING: "PNELSQILTVDPKTSLR [RPC82]"
  DISCRETE LABEL: "NOT MET"
- SEQUENCE STRING: "RVAKGSGTSVFEVEMIL [SRP54]"
  DISCRETE LABEL: "MET"
- SEQUENCE STRING: "VRELVEKIDGMDVDSVK [RPC82]"
  DISCRETE LABEL: "MET"
- SEQUENCE STRING: "NEVCLEKENRFEIVDRE [SMC4]"
  DISCRETE LABEL: "MET"
- SEQUENCE STRING: "KSDSQYRFYEYIYSQET [MED1]"
  DISCRETE LABEL: "NOT MET"
- SEQUENCE STRING: "KVLLPSINISCVQLIKC [SWI1]"
  DISCRETE LABEL: "NOT MET"
- SEQUENCE STRING: "LVSSASQQLLEILVTEL [RPN2]"
  DISCRETE LABEL: "NOT MET"
- SEQUENCE STRING: "DELMVIYISNLVRSIIA [RPN8]"
  DISCRETE LABEL: "MET"
- SEQUENCE STRING: "TTTVLKRYANHTQDIIG [RET1]"
  DISCRETE LABEL: "NOT MET"
- SEQUENCE STRING: "VRNACKRLIAHDWLNAL [YCG1]"
  DISCRETE LABEL: "MET"
- SEQUENCE STRING: "NRLEIKYHNDLIEKEIQ [SMC1]"
  DISCRETE LABEL: "NOT MET"
- SEQUENCE STRING: "VEVKDASLVDYVQVRQP [RPS5]"
  DISCRETE LABEL: "NOT MET"
- SEQUENCE STRING: "KLHVAAKLPGHKSLIRS [YGL100W/SEH1]"
  DISCRETE LABEL: "NOT MET"
- SEQUENCE STRING: "LTVSIKIALMNIPKPLN [RGR1]"
  DISCRETE LABEL: "NOT MET"
- SEQUENCE STRING: "AVVFKPFKGEVVDGTVV [RPB7]"
  DISCRETE LABEL: "NOT MET"
